Value source: ChEMBL document CHEMBL1131143

# ASSAYED SYSTEM: GABA-A receptor; alpha-5/beta-3/gamma-2 (Homo sapiens, UniProt P18507+P28472+P31644)
# Sequence (P31644 whole entry, one chain of several): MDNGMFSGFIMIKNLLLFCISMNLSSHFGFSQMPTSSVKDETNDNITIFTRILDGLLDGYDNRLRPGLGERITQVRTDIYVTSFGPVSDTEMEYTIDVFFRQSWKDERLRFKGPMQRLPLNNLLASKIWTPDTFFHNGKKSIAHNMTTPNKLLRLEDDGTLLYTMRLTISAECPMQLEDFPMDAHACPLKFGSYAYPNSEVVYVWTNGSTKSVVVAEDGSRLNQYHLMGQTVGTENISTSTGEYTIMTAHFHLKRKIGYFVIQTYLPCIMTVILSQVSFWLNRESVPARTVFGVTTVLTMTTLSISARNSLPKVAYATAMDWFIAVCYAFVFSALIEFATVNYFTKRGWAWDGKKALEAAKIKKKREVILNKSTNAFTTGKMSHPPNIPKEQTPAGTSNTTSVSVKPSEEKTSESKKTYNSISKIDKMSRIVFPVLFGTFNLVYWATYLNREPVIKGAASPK
# ASSAY SUMMARY: Binding affinity for Gamma-aminobutyric acid A receptor alpha-5-beta-3-gamma-2
Lab note: compare Ki with 10 nM, writing Met if less and Not met if equal or more.

// known answers, use as guide
ITEM SMILES: CN1Cc2c(C(=O)OC(C)(C)C)ncn2-c2ccc(N3CCCC3)cc2C1=O
ASSAYED SYSTEM: GABA-A receptor; alpha-5/beta-3/gamma-2 (Homo sapiens, UniProt P18507+P28472+P31644)
CLASS: Met

ITEM SMILES: C#Cc1ccc2c(c1)C(=O)N1CC[C@H]1c1c(-c3nc(C)no3)ncn1-2
ASSAYED SYSTEM: GABA-A receptor; alpha-5/beta-3/gamma-2 (Homo sapiens, UniProt P18507+P28472+P31644)
CLASS: Met

ITEM SMILES: CCOC(=O)c1ncn2c1CN(C)C(=O)c1cc(C#N)ccc1-2
ASSAYED SYSTEM: GABA-A receptor; alpha-5/beta-3/gamma-2 (Homo sapiens, UniProt P18507+P28472+P31644)
CLASS: Met

Check if Ki falls below 10 nM for CCCCC(=O)c1ncn2c1CN(C)C(=O)c1cc(Cl)ccc1-2 .
Not met

Check if Ki falls below 10 nM for CC#Cc1ccc2c(c1)C(=O)N(C)Cc1c(C(=O)OCC)ncn1-2 .
Met

Check if Ki falls below 10 nM for CN1Cc2c(C(=O)OC(C)(C)C)ncn2-c2ccc(N=[N+]=[N-])cc2C1=O .
Met

Check if Ki falls below 10 nM for CN1Cc2c(CO)ncn2-c2ccc(Cl)cc2C1=O .
Not met

Check if Ki falls below 10 nM for C#Cc1ccc2c(c1)C(=O)N1CCC[C@H]1c1c(-c3nc(-c4ccccc4)no3)ncn1-2 .
Not met

Check if Ki falls below 10 nM for C#Cc1ccc2c(c1)C(=O)N1CCC[C@@H]1c1c(C(=O)OCC)ncn1-2 .
Met

---

# ASSAYED SYSTEM: GABA-A receptor; alpha-1/beta-3/gamma-2 (Homo sapiens, UniProt P14867+P18507+P28472)
# Sequence (P14867 whole entry): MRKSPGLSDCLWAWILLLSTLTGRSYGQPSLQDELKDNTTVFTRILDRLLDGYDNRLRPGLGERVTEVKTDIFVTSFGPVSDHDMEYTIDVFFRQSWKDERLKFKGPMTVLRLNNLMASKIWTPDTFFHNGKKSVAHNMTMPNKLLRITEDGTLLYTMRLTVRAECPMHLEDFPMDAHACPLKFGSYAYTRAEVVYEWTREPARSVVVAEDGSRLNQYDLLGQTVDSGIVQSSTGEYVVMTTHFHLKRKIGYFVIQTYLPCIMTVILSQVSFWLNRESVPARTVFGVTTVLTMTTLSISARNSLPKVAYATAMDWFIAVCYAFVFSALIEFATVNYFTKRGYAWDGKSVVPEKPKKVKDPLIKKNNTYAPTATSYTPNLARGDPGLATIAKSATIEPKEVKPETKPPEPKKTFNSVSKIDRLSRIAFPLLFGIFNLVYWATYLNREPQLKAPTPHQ
# Sequence (P18507 whole entry): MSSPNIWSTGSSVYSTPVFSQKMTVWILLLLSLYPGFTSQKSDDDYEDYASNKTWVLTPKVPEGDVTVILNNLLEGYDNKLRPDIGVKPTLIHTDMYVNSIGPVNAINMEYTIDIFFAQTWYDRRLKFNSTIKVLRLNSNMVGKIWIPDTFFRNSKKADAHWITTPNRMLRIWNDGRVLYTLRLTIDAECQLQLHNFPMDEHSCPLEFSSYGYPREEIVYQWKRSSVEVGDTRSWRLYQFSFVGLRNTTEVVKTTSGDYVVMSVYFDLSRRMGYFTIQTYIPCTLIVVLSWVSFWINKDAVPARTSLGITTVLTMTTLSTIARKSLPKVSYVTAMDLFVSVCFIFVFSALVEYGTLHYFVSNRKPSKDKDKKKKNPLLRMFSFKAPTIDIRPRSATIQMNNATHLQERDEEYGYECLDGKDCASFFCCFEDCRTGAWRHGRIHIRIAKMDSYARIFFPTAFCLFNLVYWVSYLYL
# Sequence (P28472 whole entry): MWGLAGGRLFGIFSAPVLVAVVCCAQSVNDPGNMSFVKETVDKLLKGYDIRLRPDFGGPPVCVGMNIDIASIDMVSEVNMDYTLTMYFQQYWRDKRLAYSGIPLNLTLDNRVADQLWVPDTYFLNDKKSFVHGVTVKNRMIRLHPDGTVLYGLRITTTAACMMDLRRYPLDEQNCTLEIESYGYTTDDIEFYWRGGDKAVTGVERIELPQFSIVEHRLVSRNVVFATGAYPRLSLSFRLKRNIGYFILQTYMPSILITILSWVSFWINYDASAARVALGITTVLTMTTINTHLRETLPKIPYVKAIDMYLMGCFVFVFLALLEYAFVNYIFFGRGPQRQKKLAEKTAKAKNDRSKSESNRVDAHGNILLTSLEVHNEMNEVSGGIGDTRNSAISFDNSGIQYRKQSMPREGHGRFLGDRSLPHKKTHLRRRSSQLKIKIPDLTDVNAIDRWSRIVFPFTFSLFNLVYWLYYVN
# ASSAY SUMMARY: Binding affinity against alpha-1-beta-3-gamma-2 GABAA/BzR receptor subtype.
pKi: −log10 of the molar value.
# label = Satisfied if pKi >= 7 else Not satisfied

// known answers, use as guide
ITEM SMILES: CN1Cc2c(C(=O)OC(C)(C)C)ncn2-c2ccc(N=[N+]=[N-])cc2C1=O
ASSAYED SYSTEM: GABA-A receptor; alpha-1/beta-3/gamma-2 (Homo sapiens, UniProt P14867+P18507+P28472)
CLASS: Satisfied

ITEM SMILES: CCCCCc1ncn2c1CN(C)C(=O)c1cc(Cl)ccc1-2
ASSAYED SYSTEM: GABA-A receptor; alpha-1/beta-3/gamma-2 (Homo sapiens, UniProt P14867+P18507+P28472)
CLASS: Not satisfied

ITEM SMILES: CCOC(=O)c1ncn2c1[C@H]1CCCN1C(=O)c1cc(Br)ccc1-2
ASSAYED SYSTEM: GABA-A receptor; alpha-1/beta-3/gamma-2 (Homo sapiens, UniProt P14867+P18507+P28472)
CLASS: Not satisfied

ITEM SMILES: CCOC(=O)c1ncn2c1CN(C)C(=O)c1cc(C#CC[Si](C)(C)C)ccc1-2
ASSAYED SYSTEM: GABA-A receptor; alpha-1/beta-3/gamma-2 (Homo sapiens, UniProt P14867+P18507+P28472)
CLASS: Not satisfied

ITEM SMILES: CN1Cc2c(C(=O)OC(C)(C)C)ncn2-c2ccc(Br)cc2C1=O
ASSAYED SYSTEM: GABA-A receptor; alpha-1/beta-3/gamma-2 (Homo sapiens, UniProt P14867+P18507+P28472)
CLASS: Satisfied

Is reported pKi greater than or equal to 7 here: CN1Cc2c(C(=O)OC(C)(C)C)ncn2-c2ccc(C#CC[Si](C)(C)C)cc2C1=O
Not satisfied

Is reported pKi greater than or equal to 7 here: CCOC(=O)c1ncn2c1CN(C)C(=O)c1cc(OCC)ccc1-2
Satisfied

Is reported pKi greater than or equal to 7 here: CCOC(=O)c1ncn2c1[C@@H]1CCN1C(=O)c1cc(Br)ccc1-2
Satisfied

Is reported pKi greater than or equal to 7 here: CC(C)N(Cc1ncn2c1CN(C)C(=O)c1cc(Cl)ccc1-2)C(C)C
Not satisfied
